Please go through the items and note down their pIC50.
- Subject Of Test: MBP-CpHDAC3 (recombinant CpHDAC3) (Cryptosporidium parvum, UniProt Q5CPX0)
- Sequence (Q5CPX0 1-973): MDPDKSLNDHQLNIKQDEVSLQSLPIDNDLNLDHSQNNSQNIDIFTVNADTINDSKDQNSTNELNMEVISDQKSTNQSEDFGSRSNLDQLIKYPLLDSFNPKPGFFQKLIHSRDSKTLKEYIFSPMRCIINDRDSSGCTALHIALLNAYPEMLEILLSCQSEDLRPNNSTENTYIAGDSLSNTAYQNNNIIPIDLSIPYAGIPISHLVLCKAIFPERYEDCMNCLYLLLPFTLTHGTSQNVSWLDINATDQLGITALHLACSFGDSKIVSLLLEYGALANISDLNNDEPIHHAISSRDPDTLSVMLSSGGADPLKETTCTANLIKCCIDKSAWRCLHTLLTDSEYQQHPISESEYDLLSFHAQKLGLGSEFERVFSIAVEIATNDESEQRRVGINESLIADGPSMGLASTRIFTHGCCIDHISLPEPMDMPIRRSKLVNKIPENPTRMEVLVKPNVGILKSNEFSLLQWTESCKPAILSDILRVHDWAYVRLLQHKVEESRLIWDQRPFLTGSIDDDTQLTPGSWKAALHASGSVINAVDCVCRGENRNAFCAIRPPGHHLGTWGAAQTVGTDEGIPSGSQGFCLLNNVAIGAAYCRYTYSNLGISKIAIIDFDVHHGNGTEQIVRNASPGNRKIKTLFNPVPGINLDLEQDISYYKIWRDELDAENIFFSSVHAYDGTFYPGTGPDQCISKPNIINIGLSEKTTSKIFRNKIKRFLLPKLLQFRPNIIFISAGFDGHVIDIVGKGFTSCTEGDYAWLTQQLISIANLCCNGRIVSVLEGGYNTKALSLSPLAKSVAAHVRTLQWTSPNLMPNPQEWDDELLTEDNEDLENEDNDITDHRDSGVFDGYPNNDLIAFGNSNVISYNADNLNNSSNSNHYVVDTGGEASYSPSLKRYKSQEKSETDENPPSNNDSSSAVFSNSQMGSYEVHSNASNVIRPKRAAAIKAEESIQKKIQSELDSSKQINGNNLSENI
- Protocol Description: Fluor de Lys fluorogenic deacetylase assay
Numbers only, as −log10 of the molar value.

O=C(CCCCCCC(=O)Nc1ccccc1)NO    7.05
C=C[C@@H](O)[C@@H]1O[C@H]1/C=C/[C@@H]1O[C@H]1[C@@H](C)O    7.07

Below are 2 molecules. Give each one its pIC50.
1. CC(/C=C/C(=O)NO)=C\[C@@H](C)C(=O)c1ccc(N(C)C)cc1
2. Cn1cc(C(=O)Cc2ccccc2)cc1C=CC(=O)NO

1. 7.74
2. 6.51
